molecular target: GCase (GBA) in human fibroblast cell line GM10915 harboring the L444P GBA mutation (Homo sapiens, UniProt P04062, L483P); construct: Human fibroblast cell line GM10915 harboring the L444P GBA mutation; host or cells: GM10915 human fibroblasts; assay: GCase activity assay (4-MUG substrate, normalised to crystal violet staining) in L444P GBA fibroblasts; format: cell-based; settings: maximum percent GCase activity relative to untreated cells in the dose range tested, 5 days exposure
Sequence (P04062 40-536 L483P): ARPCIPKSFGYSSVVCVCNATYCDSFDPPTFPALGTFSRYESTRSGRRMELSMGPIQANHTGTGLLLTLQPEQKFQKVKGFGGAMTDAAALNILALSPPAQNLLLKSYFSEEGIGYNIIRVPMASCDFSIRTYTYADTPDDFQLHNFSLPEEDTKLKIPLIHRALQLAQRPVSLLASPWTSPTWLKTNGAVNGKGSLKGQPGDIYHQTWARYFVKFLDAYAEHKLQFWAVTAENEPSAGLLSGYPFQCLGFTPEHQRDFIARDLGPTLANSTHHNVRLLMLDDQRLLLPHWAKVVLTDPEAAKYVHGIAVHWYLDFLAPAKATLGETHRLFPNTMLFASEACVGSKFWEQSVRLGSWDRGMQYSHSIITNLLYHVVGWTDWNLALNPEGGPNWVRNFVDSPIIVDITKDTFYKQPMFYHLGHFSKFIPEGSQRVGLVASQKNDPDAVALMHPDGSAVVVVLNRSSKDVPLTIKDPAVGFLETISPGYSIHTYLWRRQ
EXPERIMENTAL READOUT: Emax (%)

{"MOLECULE": "CN(C)C(=O)N1CCC(C2=NOCC(CN3CCCCC3)O2)CC1 (stereo not shown)", "OBSERVED": 109}
{"MOLECULE": "NC(=O)N1CCC(C2=NOCC(CN3CCCCC3)O2)CC1 (stereo not shown)", "OBSERVED": 112}
{"MOLECULE": "NC(=O)N1CCC(C2=NOCC(CN3CCCCC3)O2)C1 (stereo not shown)", "OBSERVED": 107}
{"MOLECULE": "CC1(C2=NOCC(CN3CCC(F)(F)CC3)O2)CCNCC1 (racemic)", "OBSERVED": 151}
{"MOLECULE": "COC1CCN(C)CC1C1=NOCC(CN2CCCCC2)O1 (racemic)", "OBSERVED": 270}
{"MOLECULE": "CC(=O)NC1CCNCC1C1=NOCC(CN2CCCCC2)O1 (stereo not shown)", "OBSERVED": 146}
{"MOLECULE": "Cc1ncccc1CC1(C2=NOCC(CN3CCCCC3)O2)CCNCC1 (racemic)", "OBSERVED": 184}
{"MOLECULE": "COc1ncc(CC2(C3=NOCC(CN4CCCCC4)O3)CCNCC2)cc1Cl (stereo not shown)", "OBSERVED": 140}
{"MOLECULE": "COC1CNCCC1C1=NOCC(CN2CCCCC2)O1 (racemic)", "OBSERVED": 205}
{"MOLECULE": "CC(N)C(=O)N1CCC(C2=NOCC(CN3CCCCC3)O2)CC1 (racemic)", "OBSERVED": 283}
{"MOLECULE": "C1CCN(CC2CON=C(C34CNC(C3)C4)O2)CC1 (racemic)", "OBSERVED": 187}
{"MOLECULE": "CC(C)C1ON=C(C2CCN(C)C2)OC1CN1CCCCC1 (racemic)", "OBSERVED": 249}
{"MOLECULE": "CC1(C2=NOCC(CN3CCCCC3)O2)CCNCC1 (racemic) [compound 568]", "OBSERVED": 281}
{"MOLECULE": "C1CCN(CC2CON=C(C3CC4CNCC3O4)O2)CC1 (stereo not shown)", "OBSERVED": 212}
{"MOLECULE": "CN1CCO[C@@H]2CN(CC3CON=C(C4(C)CCNCC4)O3)C[C@@H]21 (stereo partly shown)", "OBSERVED": 119}
{"MOLECULE": "CC1(C2=NOCC(CN3CCCCC3)O2)CCNC1 (racemic)", "OBSERVED": 283}
{"MOLECULE": "c1ccc(N2CCC(C3=NOCC(CN4CCCCC4)O3)CC2)nc1 (stereo not shown)", "OBSERVED": 106}
{"MOLECULE": "c1nc(C2CCCNC2)sc1C1=NOCC(CN2CCCCC2)O1 (stereo not shown)", "OBSERVED": 165}
{"MOLECULE": "CC(=O)N1CCC(C2=NOCC(CN3CCCCC3)O2)C1 (stereo not shown)", "OBSERVED": 123}
{"MOLECULE": "CC1CC(C2=NOCC(CN3CCCCC3)O2)CN1 (racemic)", "OBSERVED": 244}
{"MOLECULE": "C1CCN(CC2CON=C(C34CCCNCC3C4)O2)CC1 (racemic)", "OBSERVED": 159}
{"MOLECULE": "FC(F)(F)CN1CCCC(C2=NOCC(CN3CCCCC3)O2)C1 (stereo not shown)", "OBSERVED": 107}
{"MOLECULE": "CN1[C@@H]2CC[C@H]1CN(CC1CON=C(C3(C)CCNCC3)O1)C2 (stereo partly shown)", "OBSERVED": 102}
{"MOLECULE": "COCCC1(C2=NOCC(CN3CCCCC3)O2)CCNC1 (racemic)", "OBSERVED": 270}
{"MOLECULE": "c1csc(N2CCC(C3=NOCC(CN4CCCCC4)O3)CC2)n1 (stereo not shown)", "OBSERVED": 135}
{"MOLECULE": "C[C@@]1(C2=NOC[C@@H](CN3CCCCC3)O2)CCCNC1", "OBSERVED": 201}
{"MOLECULE": "COCCC1(C2=NOCC(CN3CCCCC3)O2)CCN(C)C1 (racemic)", "OBSERVED": 225}
{"MOLECULE": "Cc1cncc(CC2(C3=NOCC(CN4CCCCC4)O3)CCNCC2)c1 (stereo not shown)", "OBSERVED": 136}
{"MOLECULE": "Nc1ccc(N2CCC(C3=NOCC(CN4CCCCC4)O3)C2)nc1 (stereo not shown)", "OBSERVED": 137}
{"MOLECULE": "C1CCN(CC2CON=C([C@]34CNC[C@H]3COC4)O2)CC1 (relative stereo)", "OBSERVED": 307}
{"MOLECULE": "CN(C)C(=O)N1CCCC1C1=NOCC(CN2CCCCC2)O1 (stereo not shown)", "OBSERVED": 115}
{"MOLECULE": "CC1ON=C(C2(C)CCNCC2)OC1CN1CCCCC1 (racemic)", "OBSERVED": 282}
{"MOLECULE": "FC1(F)CNCCC1C1=NOCC(CN2CCCCC2)O1 (stereo not shown)", "OBSERVED": 126}
{"MOLECULE": "CC1(C2=NOCC(CN3CCCCC3)O2)CCNCC1 (single isomer, unassigned) [compound 567]", "OBSERVED": 296}
{"MOLECULE": "CC(N)C(=O)N1CCC(C2=NOCC(CN3CCCCC3)O2)C1 (racemic)", "OBSERVED": 252}
{"MOLECULE": "CC1ON=C(C2CCN(C(C)C)C2)OC1CN1CCCCC1 (racemic)", "OBSERVED": 276}
{"MOLECULE": "COc1ccc(CC2(C3=NOCC(CN4CCCCC4)O3)CCNCC2)c(C)n1 (stereo not shown)", "OBSERVED": 113}

====

target: GCase (GBA) in human fibroblast cell line GM10915 harboring the L444P GBA mutation (Homo sapiens, UniProt P04062, L483P); construct: Human fibroblast cell line GM10915 harboring the L444P GBA mutation; host or cells: GM10915 human fibroblasts; test: GCase activity assay (4-MUG substrate, normalised to crystal violet staining) in L444P GBA fibroblasts; assay type: cell-based; details: concentration giving 150% GCase activity (1.5-fold induction), 5 days exposure, 8-point dose range
Lab note: anything with GBA EC1.5 below 40 µM is marked Fulfilled; values at 40 µM or higher are marked Not fulfilled.

{"COMPOUND": "CN1CCC(C2=NOCC(CN3CCCCC3)O2)C1 (racemic) [compound 546]", "CLASS LABEL": "Fulfilled"}
{"COMPOUND": "O=c1[nH]nc2n1CCC(C1=NOCC(CN3CCCCC3)O1)C2 (stereo not shown) [compound 668]", "CLASS LABEL": "Not fulfilled"}
{"COMPOUND": "FC(F)(F)CN1CCCC(CC2=NOCC(CN3CCCCC3)O2)C1 (stereo not shown) [compound 587]", "CLASS LABEL": "Not fulfilled"}
{"COMPOUND": "C1CCN(CC2CON=C([C@]34CCN[C@H]3CCOC4)O2)CC1 (relative stereo) [compound 462]", "CLASS LABEL": "Fulfilled"}
{"COMPOUND": "CCCCCO[C@H]1CC[C@H](NC(=O)c2cnn3c(C)cc(C)nc23)CC1 [LTI-291, reference compound]", "CLASS LABEL": "Not fulfilled"}
{"COMPOUND": "COC1CC(C2=NOCC(CN3CCCCC3)O2)CN(C)C1 (stereo not shown) [compound 689]", "CLASS LABEL": "Not fulfilled"}

====

target: GCase (GBA) in human fibroblast cell line GM10915 harboring the L444P GBA mutation (Homo sapiens, UniProt P04062, L483P); construct: Human fibroblast cell line GM10915 harboring the L444P GBA mutation; host or cells: GM10915 human fibroblasts; test: GCase activity assay (4-MUG substrate, normalised to crystal violet staining) in L444P GBA fibroblasts; type: cell-based; conditions: concentration giving 150% GCase activity (1.5-fold induction), 5 days exposure, 8-point dose range

{"MOLECULE": "CN(C)C(=O)[C@@]12CC[C@]1(C1=NOCC(CN3CCCCC3)O1)CNC2 (relative stereo)", "GBA EC1.5 (µM)": 29}
{"MOLECULE": "CN(C)CCC1=NOCC(CN2CCCCC2)O1 (racemic)", "GBA EC1.5 (µM)": 11}
{"MOLECULE": "O=C1NCCC1C1=NOCC(CN2CCCCC2)O1 (centres unmarked)", "GBA EC1.5 (µM)": 50}
{"MOLECULE": "NCC(=O)N1CCC(C2=NOCC(CN3CCCCC3)O2)CC1 (racemic)", "GBA EC1.5 (µM)": 42}
{"MOLECULE": "C1CCN(CC2CON=C(C3CC4CNCC3O4)O2)CC1 (centres unmarked)", "GBA EC1.5 (µM)": 15}
